# experimentalSystem: human 20S proteasome (Homo sapiens, UniProt P20618+P28074)
# assay: Kinetic assay of 20S proteasome chymotryptic activity (Suc-LLVY-AMC)
# conditionDetails: Suc-LLVY-AMC substrate, pH 7.8, 37° C., competitive inhibition model
pKi: −log10 of the molar value.
Listed here are compounds together with their documented pKi.
measuredParameter: pKi

[
  {
    "molSmiles": "CC(=O)C(=O)NNC(=O)[C@H](CC(C)C)NC(=O)[C@H](CC(C)C)NC(=O)OCc1ccccc1",
    "result": 4.54
  },
  {
    "molSmiles": "CC(=O)C(=O)N(C)NC(=O)[C@H](CC(C)C)NC(=O)[C@H](CC(C)C)NC(=O)OCc1ccccc1",
    "result": 4.14
  },
  {
    "molSmiles": "CC(C)C[C@H](NC(=O)OCc1ccccc1)C(=O)N[C@@H](CC(C)C)C(=O)NN(CC(C)C)C(=O)C(=O)Cc1ccccc1",
    "result": 4.09
  },
  {
    "molSmiles": "CC(C)C[C@H](NC(=O)OCc1ccccc1)C(=O)N[C@@H](CC(C)C)C(=O)NNC(=O)C=O",
    "result": 4.46
  },
  {
    "molSmiles": "CC(C)C[C@H](NC(=O)OCc1ccccc1)C(=O)N[C@@H](CC(C)C)C(=O)NN(C)C(=O)C=O",
    "result": 4.36
  },
  {
    "molSmiles": "CC(=O)C(=O)N(CC(C)C)NC(=O)[C@H](Cc1ccccc1)NC(=O)[C@H](CC(C)C)NC(=O)OCc1ccccc1",
    "result": 4.33
  }
]

* * *

# experimentalSystem: human 20S proteasome (Homo sapiens, UniProt P20618+P28074)
# assay: Kinetic assay of 20S proteasome chymotryptic activity (Suc-LLVY-AMC)
# conditionDetails: Suc-LLVY-AMC substrate, pH 7.8, 37° C., competitive inhibition model
pKi: −log10 of the molar value.
Each item that follows carries a reported pKi.

[
  {
    "compound": "CC(C)C[C@H](NC(=O)OCc1ccccc1)C(=O)N[C@@H](Cc1ccccc1)C(=O)NN(CC(C)C)C(=O)C(=O)Cc1ccccc1 [Z-Leu-Phe-ALeu-COBn]",
    "pKi": 4.26
  },
  {
    "compound": "CC(=O)C(=O)N(CC(C)C)NC(=O)[C@H](CC(C)C)NC(=O)[C@H](CC(C)C)NC(=O)OCc1ccccc1 [Z-Leu-Leu-ALeu-COMe]",
    "pKi": 4.57
  },
  {
    "compound": "CC(C)C[C@H](NC(=O)OCc1ccccc1)C(=O)N[C@@H](CC(C)C)C(=O)NN(CC(C)C)C(=O)C=O [Z-Leu-Leu-ALeu-COH]",
    "pKi": 4.62
  }
]

* * *

# experimentalSystem: caspase-3 (Homo sapiens, UniProt P42574)
# Sequence (P42574 29-175 limits assumed): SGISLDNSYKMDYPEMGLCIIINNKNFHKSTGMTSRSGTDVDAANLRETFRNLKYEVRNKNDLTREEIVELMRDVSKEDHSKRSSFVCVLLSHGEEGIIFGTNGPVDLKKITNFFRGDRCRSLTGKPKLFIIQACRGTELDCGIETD
pIC50: −log10 of the molar value.

[
  {
    "molecule": "CC(C)[C@H](NC(=O)[C@H](CCC(=O)O)NC(=O)[C@H](CC(=O)O)NC(=O)OCc1ccccc1)C(=O)N[C@H](C=O)CC(=O)O [Z-Asp-Glu-Val-Asp-COH, reference compound]",
    "experimentalSystem": "caspase-3 (Homo sapiens, UniProt P42574)",
    "pIC50": 8.35
  }
]
